- System: SNB-19 CNS
- test.method.notes: NCI-60 one-dose screen, 48 h
- reported.conditions: 10 µM unless noted
This is part of a sample that, as a whole, favours compounds with a hit. Of some 83,000 tested, about 20% had one in any assay. The source made the active and inactive calls. The calls were made as follows: active = growth percent below 10; inactive = the rest.
Parameter call: string, one of Y = active, N = inactive

Field: example entries. Status: answers known.
[
  {
    "molecule": "CC(C)=CC/C=C(/C)[C@H]1CC[C@]2(C)[C@@H]1CC[C@@H]1[C@@]3(C)CCCNC(C)(C)[C@@H]3CC[C@]12C",
    "cat": "Y"
  },
  {
    "molecule": "N#Cc1c(Cl)nc(SCC2CO2)nc1-c1ccccc1 (centres undefined)",
    "cat": "N"
  },
  {
    "molecule": "Brc1ccc(-c2nnc3c4[nH]ccc4ncn23)cc1",
    "cat": "N"
  },
  {
    "molecule": "CCN(CC)c1ccc2cc(C(Nc3ccc(Br)c(C(F)(F)F)c3)c3nnnn3C(C)(C)C)c(=O)oc2c1 (centres undefined)",
    "cat": "N"
  },
  {
    "molecule": "COc1cc2c(cc1OCCCCCOc1ccc(-n3c(C)nc4ccccc4c3=O)cc1)N=C[C@@H]1CCCN1C2=O",
    "cat": "Y"
  }
]

// outcome(item) with item = O=C1NC(=O)C(Cc2ccc(OCc3ccc(-c4cc(F)c(F)c(F)c4)cc3)cc2)S1 (centres undefined)
N

// return assay outcome for `CN(C)c1cc(NN=C(c2ccc(O)cc2)c2ccc(O)cc2)c([N+](=O)[O-])cc1[N+](=O)[O-]`
N

Hey, what did the test say about `O=C(O)c1cn(C2CC2)c2cc(N3CCN(Cc4cc(Cl)ccc4O)CC3)c(F)cc2c1=O` ?
N

State the result this test recorded for `COc1cc(C)cc2oc3oc(=O)c(C(=O)c4cc5cc(Br)ccc5o4)cc3c(=O)c12` .
N
